Test system: Acinebacter calcoloaceticus OSMPV 1130
Please use fulfilled for MIC under 2 µg/mL and not fulfilled for everything else, ties included.

Consider the worked cases shown below.
>>> print(df.to_string())
                                   compound                          assayed_system    label_class
0  Nc1cc2c(=O)c(C(=O)O)cn(C3CC3)c2cc1N1CCSCC1  Acinebacter calcoloaceticus OSMPV 1130      fulfilled
1  CN1CCN(c2c(N)cc3c(=O)c(C(=O)O)cn(C4CC4)c3c2F)CC1  Acinebacter calcoloaceticus OSMPV 1130  not fulfilled
2  CC1CN(c2cc3c(cc2N)c(=O)c(C(=O)O)cn3C2CC2)CCN1 (stereo not shown)  Acinebacter calcoloaceticus OSMPV 1130  not fulfilled
3  CC(C)(C)n1cc(C(=O)O)c(=O)c2cc(N)c(N3CCN(c4ccccn4)CC3)cc21  Acinebacter calcoloaceticus OSMPV 1130      fulfilled
4  Cc1c(N2CCNCC2)c(N)cc2c(=O)c(C(=O)O)cn(C3CC3)c12  Acinebacter calcoloaceticus OSMPV 1130  not fulfilled
5  CN1CCN(c2nc3c(c(N)c2N)c(=O)c(C(=O)O)cn3C2CC2)CC1  Acinebacter calcoloaceticus OSMPV 1130  not fulfilled

Hello, I'm reviewing records and need to know if MIC of `Nc1cc2c(=O)c(C(=O)O)cn(C3CC3)c2cc1N1CCCC1` is below 2 µg/mL. Could you check?
not fulfilled

I'd appreciate it if you could check whether `Nc1cc2c(=O)c(C(=O)O)cn(-c3ccc(F)cc3)c2cc1N1CCSCC1` has MIC smaller than 2 µg/mL.
not fulfilled

Please indicate whether the reported MIC of `CN1CCN(c2cc3c(cc2N)c(=O)c(C(=O)O)cn3C(C)(C)C)CC1` is strictly below 2 µg/mL.
not fulfilled

Does `Cc1c(N2CCSCC2)c(N)cc2c(=O)c(C(=O)O)cn(C3CC3)c12` have MIC strictly under 2 µg/mL?
fulfilled

Dear reviewer, please state whether `CC(C)(C)n1cc(C(=O)O)c(=O)c2cc(N)c(N3CCSCC3)cc21` has MIC strictly beneath 2 µg/mL.
fulfilled
